Target: T1, human c-Met (Sino Biological) (human, UniProt P08581 25-932, limits assumed)
T1 construct: Analyte in the Biacore assay; also called antigen (c-Met); printed as "human c-Met antibody (Sino Biological, Beijing, China)"
T1 sequence (P08581 25-932 limits assumed): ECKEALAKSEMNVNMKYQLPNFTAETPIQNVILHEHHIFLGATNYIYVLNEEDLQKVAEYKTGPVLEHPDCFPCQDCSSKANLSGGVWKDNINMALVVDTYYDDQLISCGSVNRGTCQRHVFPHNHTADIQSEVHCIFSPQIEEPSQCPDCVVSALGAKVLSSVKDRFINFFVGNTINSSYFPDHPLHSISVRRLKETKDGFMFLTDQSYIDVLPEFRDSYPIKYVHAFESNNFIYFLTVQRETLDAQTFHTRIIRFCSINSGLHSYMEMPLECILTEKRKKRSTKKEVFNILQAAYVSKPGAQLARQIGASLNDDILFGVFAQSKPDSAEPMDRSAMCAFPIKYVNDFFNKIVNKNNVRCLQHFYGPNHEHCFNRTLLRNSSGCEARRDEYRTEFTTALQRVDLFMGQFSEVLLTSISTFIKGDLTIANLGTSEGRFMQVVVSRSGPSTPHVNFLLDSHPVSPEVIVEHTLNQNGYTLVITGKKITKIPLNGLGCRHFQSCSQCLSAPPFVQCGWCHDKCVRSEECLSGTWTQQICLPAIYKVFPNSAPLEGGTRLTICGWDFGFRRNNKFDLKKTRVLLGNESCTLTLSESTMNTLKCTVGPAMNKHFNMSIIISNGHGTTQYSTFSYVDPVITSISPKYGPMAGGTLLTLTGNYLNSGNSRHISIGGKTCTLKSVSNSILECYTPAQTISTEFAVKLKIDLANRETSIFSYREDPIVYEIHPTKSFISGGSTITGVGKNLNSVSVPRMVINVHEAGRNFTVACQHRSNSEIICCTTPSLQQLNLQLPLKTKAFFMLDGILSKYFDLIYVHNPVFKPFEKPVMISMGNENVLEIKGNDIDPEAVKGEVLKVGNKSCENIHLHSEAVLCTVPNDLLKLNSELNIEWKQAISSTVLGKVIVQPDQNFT
Test: SPR (Biacore T200), IgG captured on Protein A CM5 chip, c-Met 0.15-2 nM as analyte
value type: Kd (nM)
Give bare numbers, in nM.

# binder, Kd [nM]
rows = [
    ("VH5/Vk3 (antibody, IgG1, V domains shown, Full IgG1/kappa expressed in HEK 293 EBNA cells) VH: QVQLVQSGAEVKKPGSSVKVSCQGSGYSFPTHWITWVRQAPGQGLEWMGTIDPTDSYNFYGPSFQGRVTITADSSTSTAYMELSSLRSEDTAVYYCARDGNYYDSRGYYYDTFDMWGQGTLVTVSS VL: DIQMTQSPGFLSLSPGERATLSCRASQGISTYLAWYQQKPGQAPRLLIYSASTLESGVPDRFSGSGSGTDFTLTISRLEPEDFATYYCQQADSFPLTFGGGTKVEIK", 0.402),
]

In the following, a different binder is considered.
Query :: If you can, please state the reported Kd value of VH0/Vk2 (antibody, IgG1, V domains shown, Full IgG1/kappa expressed in HEK 293 EBNA cells) VH: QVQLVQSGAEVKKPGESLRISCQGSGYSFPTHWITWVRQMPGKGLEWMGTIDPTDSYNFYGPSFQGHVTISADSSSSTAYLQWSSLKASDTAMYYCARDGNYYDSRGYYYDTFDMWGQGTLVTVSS VL: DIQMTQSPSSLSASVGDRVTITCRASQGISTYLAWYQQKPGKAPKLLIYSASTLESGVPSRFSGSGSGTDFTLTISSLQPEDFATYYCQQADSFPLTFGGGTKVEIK .
Result :: 0.512
